- Test system: K24384-001-R-PDC complex spheroid viability
- experiment: Anticancer human tumor K24384-001-R-PDC patient-derived pancreatic adenocarcinoma cell line growth inhibition
- reported_conditions: second compound 0.316 µM; first compound 3.16 µM; stronger effect = lower value
quantity_kind: viability, T/C (%)
The answer is to be given in %; state only the numeric part.

For orientation, consider the following solved cases.
INSERT INTO results (compound, quantity_kind, endpoint_value) VALUES
  ('CC(C)c1c(-c2ccccc2)nc2c(C#N)c[nH]n2c1=O + NC1CC1c1ccc(-c2cccc(O)c2)cc1', 'viability, T/C', 90.8),
  ('COc1ccc([C@@H](O)c2cc(-c3ncnc4cc(N5CCOCC5)ccc34)c(F)cc2Cl)nn1 + NC1CCC(NC2CC2c2ccccc2)CC1', 'viability, T/C', 30.8),
  ('COc1ccc([C@@H](O)c2cc(-c3ncnc4cc(N5CCOCC5)ccc34)c(F)cc2Cl)nn1 + NC1CC1c1ccc(-c2cccc(O)c2)cc1', 'viability, T/C', 34.3),
  ('CC1(C)CCC(CN2CCN(c3ccc(C(=O)NS(=O)(=O)c4ccc(NCC5CCOCC5)c([N+](=O)[O-])c4)c(Oc4cnc5[nH]ccc5c4)c3)CC2)=C(c2ccc(Cl)cc2)C1 + NC1CC1c1ccc(-c2cccc(O)c2)cc1', 'viability, T/C', 43.7),
  ('O=C(c1cc(Cc2n[nH]c(=O)c3ccccc23)ccc1F)N1CCN(C(=O)C2CC2)CC1 + NC1CC1c1ccc(-c2cccc(O)c2)cc1', 'viability, T/C', 57.6),
  ('O=C(c1cc(Cc2n[nH]c(=O)c3ccccc23)ccc1F)N1CCN(C(=O)C2CC2)CC1 + NC1CCC(NC2CC2c2ccccc2)CC1', 'viability, T/C', 79.4);

Lookup: Write down viability, T/C measured for item CC1COCCN1c1cc(C2(S(C)(=N)=O)CC2)nc(-c2ccnc3[nH]ccc23)n1 (configuration not stated) + NC1CC1c1ccc(-c2cccc(O)c2)cc1
Found: 34

* * *

- Tested on: K24384-001-R-PDC complex spheroid viability
- experiment: Anticancer human tumor K24384-001-R-PDC cell line growth inhibition;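 also: spheroids exposed to agents for seven days before luminescence viability reading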;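 as to viability, T/C: 100% = DMSO vehicle control viability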
- reported_conditions: second compound 10 µM; first compound 0.3 µM; stronger effect = lower value
- From the text: Multicellular complex tumor spheroid response to LSD1 Inhibitor Iadademstat in combination with a variety of drugs and investigational agents in selected tumor cell lines The current study was undertaken to assess response to LSD1 inhibitors in combination with standard-of-care drugs and investigational agents in solid tumor complex spheroid models as well as in the K-562 leukemia. […] Compounds. […] If the clinical Cmax for an agent had not been determined, the highest concentration tested was 10 microM. […]
Recorded viability, T/C for the following compounds
The answer is to be given in %; state only the numeric part.

For orientation, consider the following solved cases.
INSERT INTO assay_data (compound, subject_of_test, quantity_kind, unit_spec, endpoint_value) VALUES
  ('O=C(C=Cc1cccc(S(=O)(=O)Nc2ccccc2)c1)NO + NC1CCC(NC2CC2c2ccccc2)CC1', 'K24384-001-R-PDC complex spheroid viability', 'viability, T/C', '%', 35.7),
  ('Nc1ccccc1NC(=O)c1ccc(CNC(=O)OCc2cccnc2)cc1 + NC1CCC(NC2CC2c2ccccc2)CC1', 'K24384-001-R-PDC complex spheroid viability', 'viability, T/C', '%', 53),
  ('COc1cc(C2c3cc4c(cc3C(OC3OC5COC(C)OC5C(O)C3O)C3COC(=O)C23)OCO4)cc(OC)c1O (centres undefined) + NC1CCC(NC2CC2c2ccccc2)CC1', 'K24384-001-R-PDC complex spheroid viability', 'viability, T/C', '%', 73.2);

Lookup: Recall the reported viability, T/C of Nc1ncn(C2CC(O)C(CO)S2)c(=O)n1 (centres undefined) + NC1CC1c1ccc(-c2cccc(O)c2)cc1 on K24384-001-R-PDC complex spheroid viability and write it down.
Found: 57.2

* * *

- Tested on: K24384-001-R-PDC complex spheroid viability
- experiment: Anticancer human tumor K24384-001-R-PDC cell line growth inhibition; active means viability on the fitted dose curve at most 10% of control; inactive means the rest;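 also: spheroids exposed to agents for seven days before luminescence viability reading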
- reported_conditions: second compound 0.1 µM; first compound 0.001 µM
Reply using exactly one outcome from y (active), n (inactive)

INSERT INTO results (compound, answer_label) VALUES
  ('CC(C)CC(NC(=O)CNC(=O)c1cc(Cl)ccc1Cl)B1OC(=O)CC(CC(=O)O)(C(=O)O)O1 (stereo not drawn) + NC1CC1c1ccc(-c2cccc(O)c2)cc1', 'n'),
  ('CC[C@@]1(O)C(=O)OCc2c1cc1n(c2=O)Cc2cc3c(CN(C)C)c(O)ccc3nc2-1 + NC1CC1c1ccc(-c2cccc(O)c2)cc1', 'n'),
  ('CC(C)CC(NC(=O)C(Cc1ccccc1)NC(=O)c1cnccn1)B(O)O (stereo not drawn) + NC1CC1c1ccc(-c2cccc(O)c2)cc1', 'y'),
  ('Cn1ncnc1C1c2n[nH]c(=O)c3cc(F)cc(c23)NC1c1ccc(F)cc1 (stereo not drawn) + NC1CC1c1ccc(-c2cccc(O)c2)cc1', 'n'),
  ('Cn1ncnc1C1c2n[nH]c(=O)c3cc(F)cc(c23)NC1c1ccc(F)cc1 (stereo not drawn) + NC1CCC(NC2CC2c2ccccc2)CC1', 'n'),
  ('CC(C)CC(NC(=O)C(Cc1ccccc1)NC(=O)c1cnccn1)B(O)O (stereo not drawn) + NC1CCC(NC2CC2c2ccccc2)CC1', 'y'),
  ('CC(C)CC(NC(=O)CNC(=O)c1cc(Cl)ccc1Cl)B1OC(=O)CC(CC(=O)O)(C(=O)O)O1 (stereo not drawn) + NC1CCC(NC2CC2c2ccccc2)CC1', 'n');

Lookup: # fetch the recorded call for CC[C@@]1(O)C(=O)OCc2c1cc1n(c2=O)Cc2cc3c(CN(C)C)c(O)ccc3nc2-1 + NC1CCC(NC2CC2c2ccccc2)CC1 here
Found: n

* * *

- Test system: K24384-001-R-PDC complex spheroid viability
- experiment: Anticancer human tumor K24384-001-R-PDC cell line growth inhibition; active = viability on the fitted dose curve at most 10% of control; inactive = the rest;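 also: spheroids exposed to agents for seven days before luminescence viability reading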
- reported_conditions: second compound 0.1 µM; first compound 0.1 µM
Reply using exactly one outcome from active, inactive

Use the examples below as a reference point.
INSERT INTO results (compound, answer_label) VALUES
  ('CC[C@@]1(O)C(=O)OCc2c1cc1n(c2=O)Cc2cc3c(CN(C)C)c(O)ccc3nc2-1 + NC1CCC(NC2CC2c2ccccc2)CC1', 'inactive'),
  ('CC(C)CC(NC(=O)CNC(=O)c1cc(Cl)ccc1Cl)B1OC(=O)CC(CC(=O)O)(C(=O)O)O1 (configuration not stated) + NC1CCC(NC2CC2c2ccccc2)CC1', 'active'),
  ('CC1COCCN1c1cc(C2(S(C)(=N)=O)CC2)nc(-c2ccnc3[nH]ccc23)n1 (configuration not stated) + NC1CCC(NC2CC2c2ccccc2)CC1', 'inactive'),
  ('CC(C)CC(NC(=O)C(Cc1ccccc1)NC(=O)c1cnccn1)B(O)O (configuration not stated) + NC1CCC(NC2CC2c2ccccc2)CC1', 'active');

Lookup: # fetch the recorded call for CC[C@@]1(O)C(=O)OCc2c1cc1n(c2=O)Cc2cc3c(CN(C)C)c(O)ccc3nc2-1 + NC1CC1c1ccc(-c2cccc(O)c2)cc1 here
Found: inactive

Lookup: # fetch the recorded call for COc1cc(Nc2ncc3c(n2)-c2ccc(Cl)cc2C(c2c(F)cccc2OC)=NC3)ccc1C(=O)O + NC1CC1c1ccc(-c2cccc(O)c2)cc1 here
Found: inactive

Lookup: # fetch the recorded call for COc1ccc([C@@H](O)c2cc(-c3ncnc4cc(N5CCOCC5)ccc34)c(F)cc2Cl)nn1 + NC1CC1c1ccc(-c2cccc(O)c2)cc1 here
Found: inactive

* * *

- Test system: K24384-001-R-PDC complex spheroid viability
- experiment: Anticancer human tumor K24384-001-R-PDC cell line growth inhibition;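 also: spheroids exposed to agents for seven days before luminescence viability reading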
- reported_conditions: curve of first compound; second compound 1 µM
Recorded IC50 for the following molecules
The answer is to be given in nM; state only the numeric part.

Lookup: Write down IC50 measured for item CC1COCCN1c1cc(C2(S(C)(=N)=O)CC2)nc(-c2ccnc3[nH]ccc23)n1 (configuration not stated) + NC1CC1c1ccc(-c2cccc(O)c2)cc1
Found: 1180

* * *

Recorded viability, T/C for the following molecules
- System: K24384-001-R-PDC complex spheroid viability
- experiment: Anticancer human tumor K24384-001-R-PDC cell line growth inhibition;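 also: spheroids exposed to agents for seven days before luminescence viability reading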;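 as to viability, T/C: 100% = DMSO vehicle control viability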
- reported_conditions: second compound 3.16 µM; first compound 0.3 µM; stronger effect = lower value
- Excerpt: Multicellular complex tumor spheroid response to LSD1 Inhibitor Iadademstat in combination with a variety of drugs and investigational agents in selected tumor cell lines The current study was undertaken to assess response to LSD1 inhibitors in combination with standard-of-care drugs and investigational agents in solid tumor complex spheroid models as well as in the K-562 leukemia. […] Compounds. […] If the clinical Cmax for an agent had not been determined, the highest concentration tested was 10 microM. […]
The answer is to be given in %; state only the numeric part.

Lookup: Write down viability, T/C measured for item Nc1ccn(C2OC(CO)C(O)C2(F)F)c(=O)n1 (centres undefined) + NC1CC1c1ccc(-c2cccc(O)c2)cc1
Found: 31.5
